Where these numbers come from: ChEMBL document CHEMBL1140143

# System under test: Hormone-sensitive lipase (Rattus norvegicus, UniProt P15304)
# Sequence (P15304 whole entry): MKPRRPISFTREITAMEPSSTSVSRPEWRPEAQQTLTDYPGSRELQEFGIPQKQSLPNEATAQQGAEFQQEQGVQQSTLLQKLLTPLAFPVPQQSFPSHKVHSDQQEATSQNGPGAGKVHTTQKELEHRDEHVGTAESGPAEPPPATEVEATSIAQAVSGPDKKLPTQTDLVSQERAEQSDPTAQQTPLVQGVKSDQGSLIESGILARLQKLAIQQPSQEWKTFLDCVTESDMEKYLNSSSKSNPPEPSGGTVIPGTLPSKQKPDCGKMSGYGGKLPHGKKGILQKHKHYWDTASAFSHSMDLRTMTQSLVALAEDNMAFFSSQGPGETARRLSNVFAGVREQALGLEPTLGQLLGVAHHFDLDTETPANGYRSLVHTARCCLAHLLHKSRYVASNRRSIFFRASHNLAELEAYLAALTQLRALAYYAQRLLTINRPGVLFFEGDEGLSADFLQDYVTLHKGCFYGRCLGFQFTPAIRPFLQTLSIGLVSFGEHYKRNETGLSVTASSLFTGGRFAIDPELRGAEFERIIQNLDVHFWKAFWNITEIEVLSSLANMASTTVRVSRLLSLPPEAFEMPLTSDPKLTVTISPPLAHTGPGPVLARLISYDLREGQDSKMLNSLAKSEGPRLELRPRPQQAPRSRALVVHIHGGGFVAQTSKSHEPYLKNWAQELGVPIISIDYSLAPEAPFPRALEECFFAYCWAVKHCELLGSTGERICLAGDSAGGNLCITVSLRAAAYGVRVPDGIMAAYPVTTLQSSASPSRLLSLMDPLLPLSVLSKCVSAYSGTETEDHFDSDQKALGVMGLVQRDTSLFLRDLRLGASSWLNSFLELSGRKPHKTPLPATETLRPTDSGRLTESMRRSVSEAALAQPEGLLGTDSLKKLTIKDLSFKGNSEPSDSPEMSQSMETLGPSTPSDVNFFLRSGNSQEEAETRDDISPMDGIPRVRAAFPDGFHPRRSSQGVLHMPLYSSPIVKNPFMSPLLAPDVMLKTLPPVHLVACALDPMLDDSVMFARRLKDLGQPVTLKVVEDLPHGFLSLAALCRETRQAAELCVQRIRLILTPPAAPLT
# Test description: Inhibition of HSL in Wistar rat isolated fat cells by spectrophotometric assay
Endpoint name: IC50 (nM)
Write down the numeric answer in nM and omit the unit.

Here's what some known entries look like.
CSc1nc(-c2ccc(C(F)(F)F)cc2)nn1C(=O)N(C)C ... 1.76
Cc1c(C2CCCCC2)c(=O)on1C(=O)N1CCCCC1 ... 11
CSc1nc(-c2ccc(Cl)cc2)nn1C(=O)N(C)c1ccccc1 ... 2.82
Cc1c(C(C)C)c(=O)on1C(=O)N(C)C1CCCCC1 ... 9
CCN(CC)C(=O)n1oc(=O)c(C(C)C)c1C ... 1400

IC50 in this record for Cc1c(C(C)C)c(=O)on1C(=O)N(C)CCc1ccccc1 : 180

compound CN(C(=O)n1nc(-c2ccc(Cl)cc2)nc1SCC1CC1)c1ccccc1 , IC50 observed: 1.09

IC50 measured on Cc1c(C(C)C)c(=O)on1C(=O)N(C)Cc1ccc(F)cc1 = 111

For reference, reported IC50 for Cc1c(C2CCSCC2)c(=O)on1C(=O)N1CCCCC1 stands at 11
